Value source: paper PMC10786891

system: T1, EsCas13d, nuclease-dead (Eubacterium siraeum, UniProt B0MS50, R295A;H300A;R849A;H854A)
T1 sequence: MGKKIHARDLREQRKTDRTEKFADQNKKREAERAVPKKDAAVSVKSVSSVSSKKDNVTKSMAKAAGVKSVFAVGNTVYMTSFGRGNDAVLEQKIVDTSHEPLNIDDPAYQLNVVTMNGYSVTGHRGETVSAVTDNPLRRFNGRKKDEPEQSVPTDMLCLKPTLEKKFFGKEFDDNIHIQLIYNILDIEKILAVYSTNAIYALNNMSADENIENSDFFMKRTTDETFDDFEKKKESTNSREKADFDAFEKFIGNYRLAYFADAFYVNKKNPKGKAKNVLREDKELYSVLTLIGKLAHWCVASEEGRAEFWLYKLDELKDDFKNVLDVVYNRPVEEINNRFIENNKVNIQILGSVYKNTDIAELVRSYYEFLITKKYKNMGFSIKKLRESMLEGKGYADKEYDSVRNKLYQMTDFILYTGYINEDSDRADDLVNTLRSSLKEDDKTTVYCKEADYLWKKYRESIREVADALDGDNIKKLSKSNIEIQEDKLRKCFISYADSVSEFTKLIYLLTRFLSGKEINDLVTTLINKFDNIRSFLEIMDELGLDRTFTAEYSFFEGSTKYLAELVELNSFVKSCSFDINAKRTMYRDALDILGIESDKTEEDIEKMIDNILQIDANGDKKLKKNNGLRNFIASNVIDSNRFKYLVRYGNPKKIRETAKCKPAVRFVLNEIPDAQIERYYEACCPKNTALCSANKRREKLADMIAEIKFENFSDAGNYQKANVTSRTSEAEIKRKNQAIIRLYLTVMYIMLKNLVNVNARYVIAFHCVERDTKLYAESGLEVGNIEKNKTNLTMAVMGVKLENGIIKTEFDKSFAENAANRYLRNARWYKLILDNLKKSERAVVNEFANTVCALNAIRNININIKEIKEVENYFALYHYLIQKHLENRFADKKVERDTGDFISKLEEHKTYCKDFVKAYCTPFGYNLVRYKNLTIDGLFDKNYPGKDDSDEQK
protocol-summary: crRNA (strand 1, pre-loaded); Mg2+; 40 mM Tris-HCl pH 7.5, 150 mM NaCl, 6 mM MgCl2, 1 mM DTT, 0.1% Tween-20, 0.2 mg/ml BSA; 25 C; 10 min per concentration, then washed
condition-details: tags: His6-TwinStrep-SUMO cleaved; N-terminal SNAP kept (SNAP-Surface 488); label: 3' end held by stalled T7 RNA polymerase
pKd: −log10 of the molar value.
assay-metric: pKd

* target 1 insU 3' of 21,insA 3' of 21 (mixed) RNA 1: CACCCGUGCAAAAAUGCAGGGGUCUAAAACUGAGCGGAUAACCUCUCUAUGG RNA 2: GGGAAUGGAUCCACAUCUACGAAUUCGUACCUAAUAGAGAGGUUAUCCGCUCACCGAGAUCGGAAGAGCACACGU | 7.65
* target 2 MT 5'PFS CGC 3'PFS UAU (mixed) RNA 1: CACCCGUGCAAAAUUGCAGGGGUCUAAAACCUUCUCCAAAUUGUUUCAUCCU RNA 2: GGGAAUGGAUCCACAUCUACGAAUUCCGCAGGAUGAAACAAUUUGGAGAAGUAUAGAUCGGAAGAGCACACGU | 8.43
* target 2 MT 5'PFS AAG 3'PFS CCA (mixed) RNA 1: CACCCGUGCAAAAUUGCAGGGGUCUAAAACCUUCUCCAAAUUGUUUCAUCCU RNA 2: GGGAAUGGAUCCACAUCUACGAAUUCAAGAGGAUGAAACAAUUUGGAGAAGCCAAGAUCGGAAGAGCACACGU | 8.06
* target 3 G3C,U22G (mixed) RNA 1: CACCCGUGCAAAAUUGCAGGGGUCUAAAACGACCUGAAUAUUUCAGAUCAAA RNA 2: GGGAAUGGAUCCACAUCUACGAAUUCGUUGUUGAUCUGAAAUAUUCAGCUCUGCAGAUCGGAAGAGCACACGU | 7.10
